// molecules with pKi on UniProt P43116, multi-source literature
By convention, pKi is the negative base-10 log of a molar concentration.

# query: pKi | item O=C(Nc1ccccc1)NS(=O)(=O)c1ccccc1-c1ccc(CN2C(=O)c3ccccc3CCc3ccccc32)cc1 | system: UniProt P43116
4.80

Param readout= pKi; system= UniProt P43116; entry= O=C([O-])COc1cccc(C[C@@H]2CCC[C@@H]3O[C@]23c2nc(-c3ccccc3)c(-c3ccccc3)o2)c1.[Na+] ; returns value.
5.85

Hello, I am looking for reported pKi with UniProt P43116 for O=C(O)/C=C/c1ccccc1/C=C/Cc1cccc(CO)c1OCc1c(Cl)cccc1Cl.O=C(O)/C=C/c1ccccc1C/C=C/c1cccc(CO)c1OCc1c(Cl)cccc1Cl . Could you help?
5.60

Enter reported pKi observed with UniProt P43116 for COc1cc(C/C=C/c2ccccc2/C=C/C(=O)NS(=O)(=O)c2cccs2)ccc1OCc1ccccc1
5.62

---

Here we gather Ki data for Prostaglandin E2 receptor EP2 subtype (Homo sapiens) reported by several publications.

What is its Ki for Prostaglandin E2 receptor EP2 subtype (Homo sapiens)? Entry: O=C(CCc1ccccc1-c1cccc(-c2ccccc2OCc2ccccc2)c1)NS(=O)(=O)c1cccs1
1.6 µM

For the record CC(O)c1cc(S(C)(=O)=O)cc2c3c(n(Cc4ccc(Cl)cc4)c12)[C@@H](CC(=O)O)CC3 (stereo partly specified) , what value of Ki is listed for Prostaglandin E2 receptor EP2 subtype (Homo sapiens)?
0.39 µM

Enter reported Ki observed with Prostaglandin E2 receptor EP2 subtype (Homo sapiens) for O=C(O)/C=C/c1ccccc1/C=C/Cc1ccccc1.O=C(O)/C=C/c1ccccc1C/C=C/c1ccccc1
Sequence (P43116 whole entry): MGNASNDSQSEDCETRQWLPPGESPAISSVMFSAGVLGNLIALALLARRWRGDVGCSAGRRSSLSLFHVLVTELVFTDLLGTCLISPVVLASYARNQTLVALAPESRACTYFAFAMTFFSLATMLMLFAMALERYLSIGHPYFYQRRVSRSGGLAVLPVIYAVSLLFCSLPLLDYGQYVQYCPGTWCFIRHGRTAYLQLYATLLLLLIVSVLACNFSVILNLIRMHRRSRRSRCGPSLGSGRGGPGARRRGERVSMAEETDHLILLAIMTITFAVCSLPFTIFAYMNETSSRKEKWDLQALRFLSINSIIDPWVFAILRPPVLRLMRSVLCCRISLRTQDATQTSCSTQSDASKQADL
1.4 µM

Query Ki on Prostaglandin E2 receptor EP2 subtype (Homo sapiens) for O=C(O)c1ccc(CCN2C(=O)CCN2CCC(O)Cc2cccc(Br)c2)cc1 (stereo unspecified)
5.45 µM

Hello, I am looking for reported Ki with Prostaglandin E2 receptor EP2 subtype (Homo sapiens) for O=C(O)CCc1ccccc1-c1cccc(-c2ccccc2OCc2c(Cl)cccc2Cl)c1 . Could you help?
4.6 µM

Which Ki is reported with Prostaglandin E2 receptor EP2 subtype (Homo sapiens) for this entry: Cc1cccc(CCCc2ccccc2/C=C/C(=O)O)c1OCc1ccccc1 ?
0.38 µM

Recall the recorded Ki for CCCC/C(C)=C\C=C\[C@H]1CCC(=O)N1CCc1ccc(C(=O)O)cc1 with Prostaglandin E2 receptor EP2 subtype (Homo sapiens) and state it.
0.06 µM

Record CC(C)(C)c1ccc(CN(Cc2cccc3oc(C(=O)O)cc23)S(=O)(=O)c2cccnc2)cc1 : what is its Ki with Prostaglandin E2 receptor EP2 subtype (Homo sapiens)?
0.015 µM

Checklist item: Ki tested on Prostaglandin E2 receptor EP2 subtype (Homo sapiens), entry O=C(O)CC1CCCc2c1n(Cc1ccc(Cl)cc1)c1c(F)cc(F)cc21 (stereo unspecified) , value?
> 4.6 µM

What reported Ki corresponds to O=C(O)COc1cccc(CN(Cc2ccc(-n3cccn3)cc2)S(=O)(=O)c2cccnc2)c1 on Prostaglandin E2 receptor EP2 subtype (Homo sapiens)?
0.01 µM

Prostaglandin E2 receptor EP2 subtype (Homo sapiens) / Ki / CC(=O)c1cc(S(C)(=O)=O)cc2c3c(n(Cc4ccc(Cl)cc4)c12)[C@@H](CC(=O)O)CC3 : value?
0.23 µM

// map Cc1c(-c2ccccc2)nn(-c2nc(C(=O)O)cs2)c1-c1ccccc1 to recorded Ki (system: Prostaglandin E2 receptor EP2 subtype (Homo sapiens))
> 8.7 µM

Could you share what Ki was measured for O=C(O)COc1cccc2c1CCC(COC(=O)N(c1ccccc1)c1ccccc1)C2 (stereo unspecified) , tested on Prostaglandin E2 receptor EP2 subtype (Homo sapiens)?
> 1 µM

API: value(readout= Ki, system= Prostaglandin E2 receptor EP2 subtype (Homo sapiens), query= COc1ccc(Br)cc1S(=O)(=O)NC(=O)/C=C/c1ccccc1Cc1ccc2ccccc2c1 )
> 50 µM

Param readout = Ki; param system = Prostaglandin E2 receptor EP2 subtype (Homo sapiens); param query = Cc1cccc(/C=C/Cc2ccccc2/C=C/C(=O)O)c1O ; response: value
7.3 µM

Form field - read-out: Ki; system: Prostaglandin E2 receptor EP2 subtype (Homo sapiens); submitted item: O=C(O)CCCCCCN1C(=O)CC[C@@H]1/C=C/[C@@H](O)CC1CCCCC1
71 µM

Lab note: need Ki with Prostaglandin E2 receptor EP2 subtype (Homo sapiens) for entry Cc1ccc(N(CCN2CCC(OCC(=O)O)CC2)C(=O)c2ccc3c(c2)OCO3)cc1.Cl.O , please look it up.
> 50 µM

Param readout = Ki; param system = Prostaglandin E2 receptor EP2 subtype (Homo sapiens); param query = O=C(CCc1ccccc1-c1ccccc1CSCCc1ccccc1)NS(=O)(=O)c1cccs1 ; response: value
3.8 µM

Look up Ki with Prostaglandin E2 receptor EP2 subtype (Homo sapiens) for this compound: O=C(O)CCCc1ccccc1-c1cccc(-c2ccccc2OCc2ccccc2)c1
3.5 µM

Observed Ki on Prostaglandin E2 receptor EP2 subtype (Homo sapiens) for O=C(CCc1ccccc1-c1cccc(/C=C/c2ccc3ccc(Cl)cc3n2)c1)NS(=O)(=O)c1cccs1 , please.
16 µM

Write down the reported Ki of O=C(CCc1ccccc1-c1ccc(CSCCc2ccccc2)cc1)NS(=O)(=O)c1cccs1 , test system: Prostaglandin E2 receptor EP2 subtype (Homo sapiens).
2.7 µM

Give recorded Ki with Prostaglandin E2 receptor EP2 subtype (Homo sapiens) for the following compound: O=C(COc1ccccc1)NS(=O)(=O)c1ccccc1-c1ccc(CN2C(=O)c3ccccc3CCc3ccccc32)cc1
22 µM

Write down the reported Ki of O=C(O)c1ccc(CCN2C(=O)CCN2CCC(O)Cc2cccc(I)c2)cc1 (stereo unspecified) , test system: Prostaglandin E2 receptor EP2 subtype (Homo sapiens).
2.36 µM

So what Ki did O=C(O)CCCCCCN1C(=O)CC[C@@H]1/C=C/C(O)c1ccc(C(F)(F)F)o1 (stereo partly specified) get with Prostaglandin E2 receptor EP2 subtype (Homo sapiens)?
58 µM

Query for Prostaglandin E2 receptor EP2 subtype (Homo sapiens): what Ki does the record show for O=C(CCc1ccccc1-c1cccc(CSCCc2ccccc2)c1)NS(=O)(=O)c1cccs1 ?
2 µM

Record Cc1sc(C)c(C(=O)N[C@@H](C)c2ccc(C(=O)O)cc2)c1Cc1ccc(Cl)cc1 : what is its Ki with Prostaglandin E2 receptor EP2 subtype (Homo sapiens)?
0.202 µM

Query for Prostaglandin E2 receptor EP2 subtype (Homo sapiens): what Ki does the record show for Cc1cccc(/C=C/Cc2ccccc2/C=C/C(=O)O)c1OCc1ccccc1 ?
8.1 µM

Notebook entry, Prostaglandin E2 receptor EP2 subtype (Homo sapiens) assay: Ki of CCc1nc2c(C)nc(C)cc2n1-c1ccc(CCNC(=O)NS(=O)(=O)c2ccc(C)cc2)cc1 = ?
> 5 µM

What reported Ki corresponds to C[C@H](NC(=O)c1cccc2c(Cl)cn(Cc3cccc(Cl)c3)c12)c1ccc(C(=O)O)cc1 on Prostaglandin E2 receptor EP2 subtype (Homo sapiens)?
≥ 0.93 µM

Provide the documented Ki with Prostaglandin E2 receptor EP2 subtype (Homo sapiens) as the system for C=CCC1([C@@H](O)C/C=C/[C@@H]2[C@@H](C/C=C\CCCC(=O)O)[C@H](Cl)C[C@H]2O)CCC1
0.0017 µM

GET /values?readout=Ki&system=Prostaglandin E2 receptor EP2 subtype (Homo sapiens)&item= O=C(O)CCc1ccccc1-c1ccc(CSCCc2ccccc2)cc1
0.14 µM

Any idea what Ki came out for O=C(NCCCc1ccccc1)NS(=O)(=O)c1ccccc1-c1ccc(CN2C(=O)c3ccccc3CCc3ccccc32)cc1 on Prostaglandin E2 receptor EP2 subtype (Homo sapiens)?
> 100 µM

Under Prostaglandin E2 receptor EP2 subtype (Homo sapiens): Ki value of Cc1cccc(/C=C/Cc2ccccc2/C=C/C(=O)O)c1OCc1ccccc1.Cc1cccc(C/C=C/c2ccccc2/C=C/C(=O)O)c1OCc1ccccc1 (stereo in doubt; 2a) ?
0.55 µM

GET /values?readout=Ki&system=Prostaglandin E2 receptor EP2 subtype (Homo sapiens)&item= CCCCc1nn(-c2ccccc2C(F)(F)F)c(=O)n1Cc1ccc(-c2ccccc2S(=O)(=O)NC(=O)c2cccs2)cc1
> 10 µM

Param readout= Ki; system= Prostaglandin E2 receptor EP2 subtype (Homo sapiens); entry= O=C(O)CCCCCCN1C(=O)CC[C@@H]1/C=C/C(O)c1ccccc1 (stereo partly specified) ; returns value.
41 µM

Ki of O=C(NCCC[C@H](NC(=O)c1cc2ccccc2[nH]1)C(=O)N[C@@H](Cc1ccccc1)C(=O)O)OCc1ccccc1 on Prostaglandin E2 receptor EP2 subtype (Homo sapiens)?
> 1 µM

---

The entries below pair compounds with pKi values for UniProtKB P43116, as found in several publications.
pKi: −log10 of the molar value.
Binary classification by pKi, with 6 as an inclusive lower bound for True; all other cases are False.

# bool: pKi of O=C(O)CCCCCCN1C(=O)CC[C@@H]1CC[C@@H](O)Cc1cccc(C(F)(F)F)c1 >= 6
False

Is pKi for O=C(O)CCc1ccccc1-c1cc(-c2ccccc2OCc2ccccc2)cs1 at or above 6?
False

Hello, I need to know if O=C(Cc1ccccc1)NS(=O)(=O)c1ccccc1-c1ccc(CN2C(=O)c3ccccc3CCc3ccccc32)cc1 has measured pKi not below 6. Thanks!
False

Exam item: decide whether the reported pKi for C[C@@H](NC(=O)c1c(Cl)sc(Cl)c1Cc1cccc(Cl)c1)c1ccc(C(=O)O)cc1 is at least 6.
True

Is reported pKi greater than or equal to 6 here: O=C(O)c1ccc(CCCc2ccccc2OCc2ccccc2)cc1
True

Would you say O=C(O)c1ccc(CCN2C(=O)CCN2CCC(O)Cc2cccc(CCC3CC3)c2)cc1 (centres undefined) shows pKi at minimum 6?
False

Check the entry Cc1cccc(/C=C/C(O)c2ccccc2/C=C/C(=O)O)c1OCc1c(Cl)cccc1Cl (centres undefined) : does pKi equal or exceed 6?
False

Hi team, for CCCCCC[C@H](O)/C=C/[C@H]1CCC(=O)N1CCc1ccc(C(=O)O)cc1 , is the recorded pKi at or above 6?
True

Decide: is the reported value of pKi for COc1cc(C/C=C/c2ccccc2/C=C/C(=O)O)ccc1OCc1ccccc1 equal to or greater than 6?
False
